system: collagen Iα1 expression in proximal tubular cells (mProx24); experiment: Inhibitory effect on collagen Iα1 expression in proximal tubular cells (hTGF-β1 stimulated, real-time PCR); assay type: cell-based; conditions: Mus musculus; mProx24, hTGF-β1 stimulated; read-out: IC50 (inhibition of collagen Iα1 expression)
pIC50: −log10 of the molar value.
PROPERTY MEASURED: pIC50

Please review the following examples before continuing.
{"columns": ["COMPOUND", "pIC50"],
 "data": [
  ["Oc1cc(COc2ccc3ccccc3c2)nn1-c1ccccn1", 6.64],
  ["c1ccc(COc2c(Cc3ccccc3)c(-c3ccccc3)nn2-c2ccccn2)cc1 [Compound 18-233, reference compound]", 4.99],
  ["Oc1cc(-c2ccccc2-c2ccc3c(c2)OCO3)nn1-c1ccccn1", 5.88],
  ["Oc1cc(-c2cccc(I)c2)nn1-c1ccccn1", 6.98],
  ["CCCc1c(/C=C/c2ccc(O)c(OC)c2)nn(-c2ccccn2)c1O", 5.75]
]}

A = Oc1cc(-c2ccc(-c3ccccc3)cc2)nn1-c1ncccn1
B = COc1cccc(-c2cc(O)n(-c3ccccn3)n2)c1
C = CC(=O)Oc1cc(-c2ccc(Br)cc2)nn1-c1ccccn1
stdin: Number of compounds to sort: 3. Sort criterion: pIC50, ascending. // respond by listing labels in the order requested
stdout: B, C, A

A = Oc1cc(-c2ccc(Br)cc2)nn1-c1ccccn1
B = CCCc1c(-c2ccccc2)nn(-c2ccccn2)c1O.Cl
stdin: Please state the entry with greater pIC50 among A and B . Output the label that corresponds to your choice.
stdout: B
(B: 6.13, A: 5.67)
